# System: IGROV-1
# Protocol Text: NCI tumour cell line growth inhibition, 48 h
Calls of active or inactive are those of the source. Cut-off read from the data, not from the text of the source: active = GI50 up to about 1.1 µM and inactive = higher.
This listing pairs molecules with measured GI50.

Here's what some known entries look like.
Cn1c(=O)c2c(ncn2Cc2ccc(O)c([N+](=O)[O-])c2)n(C)c1=O ... > 100 µM (inactive)
O=C(Nc1ccc(Cl)cc1)c1cc(S(=O)(=O)Nc2n[nH]c(=O)[nH]2)c(SSc2cc(Cl)c(C(=O)Nc3ccc(Cl)cc3)cc2S(=O)(=O)Nc2n[nH]c(=O)[nH]2)cc1Cl ... > 100 µM (inactive)
Cn1c2c(c3ccccc31)CCN(CCCCN1CCN(c3ccccc3)CC1)C2=O ... > 76.6 µM (inactive)
O=C1C(Cl)=C(Cl)C(=O)N1c1cccc(C(F)(F)F)c1 ... > 100 µM (inactive)
C#CCOC(=O)C(N)CS (stereo not given) ... > 100 µM (inactive)
Cc1ccc2c(O)cc(-c3ccc(Cl)cc3)nc2n1 ... 5.69 µM (inactive)
CC1=NNC(=O)C2CCC(=O)N12 (stereo not given) ... > 100 µM (inactive)
COc1ccc(S(=O)(=O)NNS(C)(=O)=O)cc1OC ... > 100 µM (inactive)

GI50 measured on `CN1CCN(c2ccc3c(c2)NCC(=O)N3)CC1` = > 100 µM (inactive)

Reported GI50 for CC(C)(C)c1ccc(O)c(C(O)c2ccncc2)c1 (stereo not given) was > 100 µM (inactive)

Recorded GI50 (molecule `Cn1cc(S(=O)(=O)NC(=O)Nc2ccc(Cl)cc2)c2ccccc21` ): 13.3 µM (inactive)

Lab note: measured GI50 of CC(C)CC(C(N)=O)C(=O)NC(Cc1ccccc1)NC(=O)CNC(=O)C(C)NC(=O)C(N)Cc1ccc(O)cc1 (stereo not given) was > 100 µM (inactive)

Query `CCOC(=O)c1cc2c3ccn(Cc4ccccc4)c3c3c(C)noc3c2[nH]1` yields GI50 of > 100 µM (inactive)

GI50 reading for `Cn1c(=O)c2c(nc(C[N+]3([O-])CCOCC3)n2C)n(C)c1=O` : > 100 µM (inactive)

The recorded GI50 for COc1cc2c(cc1OCCCC(=O)Nc1cc(C(=O)Nc3cc(C(=O)Nc4cc(C(=O)NCCCN(C)C)n(C)n4)n(C)c3)n(C)c1)N=CC1CCCN1C2=O (stereo not given) is 6.38 µM (inactive)

GI50 reading for `O=C(O)c1ccc(Nc2nc3nn(Cc4ccccc4)cc3c(=O)s2)cc1` : > 100 µM (inactive)

# molecule `CCN(CC)CCNc1n[n+]([O-])c2ccccc2[n+]1[O-]` ; its GI50 = 2.43 µM (inactive)

Consider `C[C@]12CC[C@@H]3c4ccc(OCC(=O)O)cc4CC[C@H]3[C@@H]1CCC2=O` . Its measured GI50 is > 100 µM (inactive)

The molecule identified as COC1=C(C(=O)OC(C)(C)C)[C@]2(C)C(C(=O)OC(C)(C)C)C(OC)=C(C(=O)OC(C)(C)C)[C@]2(C)C1C(=O)OC(C)(C)C (stereo not given in full) registered its GI50 at > 100 µM (inactive)

So, C[C@@H]1C2=CC[C@@]3(C)C(CCC3[C@H](C)[C@H]3C[C@@]4(C)O[C@@](c5cccnc5)(O3)OC4(C)C)[C@@H]2C2OC2[C@@]12CCC(=O)O2 (stereo not given in full) ? Its GI50 was 76.6 µM (inactive)

So, `CN(C)c1ccc(/C=C(\C#N)C(N)=C(C#N)C#N)cc1` ? Its GI50 was > 100 µM (inactive)

###

# Test system: NCI-H23
# Protocol Text: NCI tumour cell line growth inhibition, 48 h
Active and inactive are the calls of the source. Cut-off read from the data, not from the text of the source: active = GI50 up to about 1.1 µM and inactive = higher.
Measured Metric: GI50

N#Cc1c(N)sc2c1-c1ccccc1OC2 ... 45.4 µM (inactive)
COc1c(C(=O)/C(=N/Nc2cccc(Cl)c2)C(C)=O)c(O)c(OC)c2occc12 ... > 100 µM (inactive)
CSc1c(C(=O)Nc2ccccc2)c(N)nn1-c1ccccc1 ... > 100 µM (inactive)

Looking up `[N-]=[N+]=C1C(=O)C2CC3CC(C2)CC1C3` , I found its GI50 recorded as > 100 µM (inactive)

`Cn1c(CO)ccc1-c1ccc(-c2ccc(CO)[se]2)[se]1` yielded GI50 of 16.3 µM (inactive)

Per the records, this compound ( `Cn1c2ccccc2n2c(=O)c3c(c(C#N)c12)CCCC3` ) has GI50 equal to > 100 µM (inactive)

Given item COc1cc2c(cc1OC)C1C(O)C(OC)C(Br)C3(Br)CCN(C2)C13 (stereo not given) , the value recorded as its GI50 is > 100 µM (inactive)

Record Cc1ccc(C2(C)CC/C(=N/N=C3/CCC(C)(c4ccc(C)c(C)c4)c4cc(C)c(C)cc43)c3cc(C)c(C)cc32)cc1C (stereo not given) . Reported GI50: > 100 µM (inactive)

Lab note: Cc1cc(C)c2c(c1)CC1(Cc3ccc(C)c(C)c3C1=O)C2=O (stereo not given) gave GI50 of > 100 µM (inactive)

Record C[C@@H]1C2=CC[C@@]3(C)C(CCC3[C@H](C)[C@H]3C[C@@]4(C)O[C@@](c5cccnc5)(O3)OC4(C)C)[C@@H]2C2OC2[C@@]12CCC(=O)O2 (stereo not given in full) . Reported GI50: 34.2 µM (inactive)

###

# System: 786-0
# Protocol Text: NCI tumour cell line growth inhibition, 48 h
Active and inactive are the calls of the source. No stated cut-off is given here; in the data, active = GI50 up to about 1.1 µM and inactive = higher.
// classify into yes (1) for active, no (0) for inactive

Query block: How did this test come out for CCCNC(=O)C1C(=O)C(=O)N(CCC)C1=O (stereo unspecified) ?
Result block: no (0)

Query block: For this molecule, state the assay outcome: `Cc1c(C(=O)/C=C/c2ccc3c(c2)OCO3)[n+]([O-])c2ccccc2[n+]1[O-]`
Result block: no (0)

Query block: Look up the recorded call for `NS(=O)(=O)c1ccc(-n2c(-c3cccs3)nc3ccc(I)cc3c2=O)cc1` in this test.
Result block: no (0)

Query block: Tell me the recorded outcome of this test for C=C1C(=O)O[C@H]2C1C[C@H](O)[C@@]1(C)OC1CC[C@@]1(C)O[C@H]21 (stereo partly specified) .
Result block: no (0)

Query block: Status in this test for `CC(=O)c1cccc(C)c1C(=O)O` ?
Result block: no (0)

Query block: Could you check what this test reported for `O=C1c2cccnc2-c2nccc3c2c1nc1ccccc13` ?
Result block: yes (1)

Query block: I'd appreciate the recorded outcome for COC(O)C(=O)c1c2c(cc3c1CCC3)CCCC2 (stereo unspecified) from this test.
Result block: no (0)

Query block: Given `CCOc1ccc(NC(=O)C(=O)CC(=O)c2c[n+]([O-])c3cc(C)c(C)cc3[n+]2[O-])cc1` , state the outcome it received in this test.
Result block: no (0)

Query block: How did this test come out for `COc1ccc(/C=N/N=C(\N)NO)c(OC)c1OC` ?
Result block: no (0)

Query block: Please let me know the test result on file for `CCOc1ccccc1-c1nc2c(s1)C(=O)c1ccccc1C2=O` .
Result block: no (0)

###

Each record here notes measured GI50.
# Test system: NCI-H522
# Protocol Text: NCI tumour cell line growth inhibition, 48 h
Activity calls are given as the source filed them. Rule as the data show it: active = GI50 up to about 1.1 µM and inactive = higher.

The measured GI50 associated with `CCOC(=O)c1cc2c3ccn(Cc4ccccc4)c3c3c(C)noc3c2[nH]1` reads > 100 µM (inactive)

Note to self: GI50 recorded for COC(=O)[C@H]1C[C@H]1NC(=O)C(CC(=O)OCc1ccccc1)NC(=O)OCc1ccccc1 (stereo partly specified) was 40.8 µM (inactive)

Record summary for CCC1(O)C(=O)OCc2c1cc1n(c2=O)Cc2cc3ccc(CO)cc3nc2-1 (stereo unspecified) : reported GI50 = 1.64 µM (inactive)

Lab note: `O=C1/C(=C/c2ccccc2)CN(C(=O)Oc2ccccc2)C/C1=C\c1ccccc1` gave GI50 of 23.2 µM (inactive)

Record OCc1cc2c([nH]c3ccccc32)c(C(O)CO)n1 (stereo unspecified) . Reported GI50: > 100 µM (inactive)

// GI50 lookup, compound = CC[P+](C)(Cc1ccccc1)c1ccccc1 (stereo unspecified) , result: 44.2 µM (inactive)

Value of measured GI50 for the entry `COc1cc2ccc(C(=O)O)cc2cc1OC` : > 100 µM (inactive)

// sample NC12Oc3cc(O)cc(O)c3C1(c1ccc(Cl)cc1)c1c(O)cc(O)cc1O2 (stereo unspecified) , its GI50 was 24.7 µM (inactive)

Entry `COc1ccc2nc3c([N+](=O)[O-])ccc4c3c(c2c1)N=CN4CCCN(C)C` — recorded GI50 = 1.34 µM (inactive)

###

# Test system: COLO 205
# Protocol Text: NCI tumour cell line growth inhibition, 48 h
The source made the active and inactive calls. Rule as the data show it: active = GI50 up to about 1.1 µM and inactive = higher.
Just give me one of these, please: active, inactive

Query block: Record request — test call for `CN(C)CCNC(=O)c1cccc2ccc(-c3ccc(Br)cc3)nc12`
Result block: active

Query block: Dear all, I need the recorded test outcome for `N#CC1=C(N)N2C(=O)/C(=C/c3ccccc3O)N=C2S1` , thank you.
Result block: inactive

Query block: Which outcome was assigned to CCC1(O)C(=O)OCc2c1cc1n(c2=O)Cc2cc3ccc(CO)cc3nc2-1 (configuration not stated) in this test?
Result block: inactive

Query block: I would be grateful if you could indicate the recorded call for `C=C1C(=O)O[C@@H]2/C=C(/C)[C@@H](OC(C)=O)C[C@@H](O)/C(C)=C\[C@@H](OC(=O)[C@]3(C)O[C@@H]3C)[C@@H]12` .
Result block: inactive

Query block: Please let me know the test result on file for `CCN(CC)CCNc1n[n+]([O-])c2ccccc2[n+]1[O-]` .
Result block: inactive

Query block: Tell me the assay call for `O=C1c2cccnc2-c2nccc3c2c1nc1ccccc13` please.
Result block: inactive

Query block: What call does the record list for CN1C(C)(C)CC(=O)C(Br)C1(C)C (configuration not stated) ?
Result block: inactive
